- System: CEM cells HIV-1 protection, formazan growth assay
- assay.details: NCI AIDS Antiviral Assay
- reported.conditions: measured here: growth of uninfected CEM cells
readout.label: IC50 (µM)
Please state the figure in µM; there is no need to write the unit.

Identify the reported IC50 for the following entry. Nc1cccc(OCC2CCCN3CCCCC23)c1 (configuration not stated) 13.8

Identify the reported IC50 for the following entry. CN(c1c(Cl)cccc1Cl)S(=O)(=O)c1ccccc1[N+](=O)[O-] 66.1

Identify the reported IC50 for the following entry. CN1CC=C(c2cccn2C)CC1 132

Identify the reported IC50 for the following entry. COc1ccc(N(c2ccc(C#N)cc2)c2ccc(C#N)cc2)cc1 33.1

Identify the reported IC50 for the following entry. CCc1cc2c(cc1CCCC(=O)O)CC1(Cc3ccc(C(=O)O)cc3C1)C2 (configuration not stated) 155

Source of measurements: PubChem BioAssay AID179
